- Tested on: A-549
- assay_details: SRB colorimetric assay of cell growth and viability, A-549
- Assay type: cell-based, human
- measurement_parameters: 48 hours exposure, SRB; read-out: LC50 A-549
Where a SMILES comes first, the peptide text is derived from it. Bridges are numbered along the chain shown (N, C = ends). [ ]: non-standard residue; d: D form. The star is where a group is joined. d(aIle) = CC[C@H](C)[C@@H](N)C(=O)O; d(aThr) = C[C@@H](O)[C@@H](N)C(=O)O; Hexanoyl(5-Me) = CC(C)CCCC(=O)*; Orn = NCCC[C@H](N)C(=O)O; Dhb = C/C=C(\N)C(=O)O
Readings of CC50 for the listed compounds
Express it in µM; write the number only.

Lookup: Test system A-549; read-out CC50; what value for C/C=C1\NC(=O)[C@H](Cc2ccccc2)NC(=O)[C@@H](C(C)C)NC(=O)[C@@H]([C@@H](C)CC)NC(=O)[C@H](NC(=O)[C@H](NC(=O)[C@H](CCCC[N+](C)(C)C)NC(=O)[C@H]2CCCN2C(=O)[C@H](NC(=O)[C@@H](NC(=O)[C@@H](NC(=O)[C@H](NC(=O)CC[C@@H](C)CC)C(C)C)[C@@H](C)O)C(C)C)C(C)C)[C@@H](C)CC)[C@@H](C)OC(=O)[C@H](C(C)C)NC1=O [Compound 93, [N^ε(Me)3-Lys^8, (4S)-MeHex^14]-KF] ?
Found: 2.44

Lookup: Subsequent entry: C/C=C1\NC(=O)[C@H](Cc2ccccc2)NC(=O)[C@@H](C(C)C)NC(=O)[C@@H]([C@@H](C)CC)NC(=O)[C@H](NC(=O)[C@H](NC(=O)[C@H](CCCN)NC(=O)[C@H]2CCCN2C(=O)[C@H](NC(=O)[C@@H](NC(=O)[C@@H](NC(=O)[C@H](NC(=O)CC[C@@H](C)[C@H]2CC[C@H]3[C@@H]4CC[C@@H]5C[C@H](OC(=O)C(F)(F)F)CC[C@]5(C)[C@H]4CC[C@]23C)C(C)C)[C@@H](C)OC(=O)C(F)(F)F)C(C)C)C(C)C)[C@@H](C)CC)[C@@H](C)OC(=O)[C@H](C(C)C)NC1=O
Found: 3.64

Lookup: Check C/C=C1\NC(=O)[C@H](Cc2c[nH]c3ccccc23)NC(=O)[C@@H](C(C)C)NC(=O)[C@@H]([C@@H](C)CC)NC(=O)[C@H](NC(=O)[C@H](NC(=O)[C@H](CCCN)NC(=O)[C@H]2CCCN2C(=O)[C@H](NC(=O)[C@@H](NC(=O)[C@@H](NC(=O)[C@H](NC(=O)CCCC(C)C)C(C)C)[C@@H](C)O)C(C)C)C(C)C)[C@@H](C)CC)[C@@H](C)OC(=O)[C@H](C(C)C)NC1=O [Compound 68, [Trp^3]-KF] ({Hexanoyl(5-Me)}-[dV]TV[dV][dP][Orn][d(aIle)][d(aThr)][d(aIle)][dV]W[Dhb]V; ester 8-C) too.
Found: 5.12

Lookup: Now try C/C=C1\NC(=O)[C@H](Cc2ccccc2)N(C)C(=O)[C@@H](C(C)C)NC(=O)[C@@H]([C@@H](C)CC)NC(=O)[C@H](NC(=O)[C@H](NC(=O)[C@H](CCCN)NC(=O)[C@H]2CCCN2C(=O)[C@H](NC(=O)[C@@H](NC(=O)[C@@H](NC(=O)[C@H](NC(=O)CC[C@@H](C)CC)C(C)C)[C@@H](C)O)C(C)C)C(C)C)[C@@H](C)CC)[C@@H](C)OC(=O)[C@H](C(C)C)NC1=O [Compound 80, [NMePhe^3, (4S)-MeHex^14]-KF] .
Found: 3.67

====

- System: DU-145
- assay_details: SRB colorimetric assay of cell growth and viability, DU-145
- Assay type: cell-based, human
- measurement_parameters: 48 hours exposure
Where a SMILES comes first, the peptide text is derived from it. Bridges are numbered along the chain shown (N, C = ends). [ ]: non-standard residue; d: D form. The star is where a group is joined. d(aIle) = CC[C@H](C)[C@@H](N)C(=O)O; d(aThr) = C[C@@H](O)[C@@H](N)C(=O)O; Hexanoyl(5-Me) = CC(C)CCCC(=O)*; Orn = NCCC[C@H](N)C(=O)O; Dhb = C/C=C(\N)C(=O)O
So basically, if LC50 (concentration causing 50% net cell kill) comes in under 7 µM it's Y, and if it's 7 µM or more it's N.

These solved cases illustrate the format of a correct answer.
{"molecule": "C/C=C1\\NC(=O)[C@H](Cc2ccccc2)NC(=O)[C@@H](C(C)C)NC(=O)[C@@H]([C@@H](C)CC)NC(=O)[C@H](NC(=O)[C@H](NC(=O)[C@H](CCCN)NC(=O)[C@H]2CCCN2C(=O)[C@H](NC(=O)[C@@H](NC(=O)[C@@H](NC(=O)[C@H](NC(=O)CCCNC(=N)N)C(C)C)[C@@H](C)O)C(C)C)C(C)C)[C@@H](C)CC)[C@@H](C)OC(=O)[C@H](C(C)C)NC1=O [Compound 29, [4-GuBut^14]-KF]", "category": "Y"}
{"molecule": "C/C=C1\\NC(=O)[C@H](Cc2ccccc2)NC(=O)[C@@H](C(C)C)NC(=O)[C@@H]([C@@H](C)CC)NC(=O)[C@H](NC(=O)[C@H](NC(=O)[C@H](CCCN)NC(=O)[C@H]2CCCN2C(=O)[C@H](NC(=O)[C@@H](NC(=O)[C@@H](NC(=O)[C@H](NC(=O)Cc2cc(F)cc(F)c2)C(C)C)[C@@H](C)O)C(C)C)C(C)C)[C@@H](C)CC)[C@@H](C)OC(=O)[C@H](C(C)C)NC1=O [Compound 22, [3,5-dFPhAc^14]-KF]", "category": "Y"}
{"molecule": "C/C=C1\\NC(=O)[C@H](Cc2ccccc2)NC(=O)[C@@H](C(C)C)NC(=O)[C@@H](C(C)C)NC(=O)[C@H](NC(=O)[C@H](NC(=O)[C@H](CCCN)NC(=O)[C@H]2CCCN2C(=O)[C@H](NC(=O)[C@@H](NC(=O)[C@@H](NC(=O)[C@H](NC(=O)CCCC(C)C)C(C)C)[C@@H](C)O)C(C)C)C(C)C)C(C)C)[C@@H](C)OC(=O)[C@H](C(C)C)NC1=O [Compound 12, [D-Val^5, D-Val^7]-KF] ({Hexanoyl(5-Me)}-[dV]TV[dV][dP][Orn][dV][d(aThr)][dV][dV]F[Dhb]V; ester 8-C)", "category": "Y"}
{"molecule": "C/C=C1\\NC(=O)[C@H](Cc2ccccc2)NC(=O)[C@@H](C(C)C)NC(=O)[C@@H]([C@@H](C)CC)NC(=O)[C@H](NC(=O)[C@H](NC(=O)[C@H](CCCN)NC(=O)[C@H]2CCCN2C(=O)[C@H](NC(=O)[C@@H](NC(=O)[C@H](C)NC(=O)CCCC(C)C)C(C)C)C(C)C)[C@@H](C)CC)[C@@H](C)OC(=O)[C@H](C(C)C)NC1=O [Compound 52, [Ala^12, noD-Val^13]-KF] ({Hexanoyl(5-Me)}-AV[dV][dP][Orn][d(aIle)][d(aThr)][d(aIle)][dV]F[Dhb]V; ester 7-C)", "category": "N"}

Shifting focus to the molecule that follows.
Lookup: For C/C=C1\NC(=O)[C@H](Cc2ccccc2)NC(=O)[C@@H](C(C)C)NC(=O)[C@@H]([C@@H](C)CC)NC(=O)[C@H](NC(=O)[C@H](NC(=O)[C@H](CCCN)NC(=O)[C@H]2CCCN2C(=O)[C@H](NC(=O)[C@@H](NC(=O)[C@@H](NC(=O)[C@H](NC(=O)c2ccc(C(F)(F)F)cc2)C(C)C)[C@@H](C)O)C(C)C)C(C)C)[C@@H](C)CC)[C@@H](C)OC(=O)[C@H](C(C)C)NC1=O [Compound 21, [p-CF3Bza^14]-KF] , is the recorded LC50 (concentration causing 50% net cell kill) below the cut-off of 7 µM?
Found: Y

====

- Test system: A-549
- assay_details: SRB colorimetric assay of cell growth and viability, A-549
- Assay type: cell-based, human
- measurement_parameters: 48 hours exposure; read-out: LC50 A-549
reported_metric: CC50 (µM)
Write the value in µM as a bare number.

Lookup: CC50 for C/C=C1\NC(=O)[C@H](Cc2ccccc2)NC(=O)[C@@H](C(C)C)NC(=O)[C@@H]([C@@H](C)CC)NC(=O)[C@H](NC(=O)[C@H](NC(=O)[C@H](CCCN)NC(=O)[C@H]2CCCN2C(=O)[C@H](NC(=O)[C@@H](NC(=O)[C@@H](NC(=O)[C@H](NC(=O)Cc2cc(F)cc(F)c2)C(C)C)[C@@H](C)O)C(C)C)C(C)C)[C@@H](C)CC)[C@@H](C)OC(=O)[C@H](C(C)C)NC1=O [Compound 22, [3,5-dFPhAc^14]-KF] ?
Found: 3.99
